A collection of compounds and their measured surface tension liquid-gas
experiment: mn = molality of the nth substance listed, in mol/kg; conditions: 298.15 K, Ring tensiometer, m2 = 0
measured_parameter: surface tension liquid-gas (mN/m)

> print(dat)
                       compound  test.result
1  O [water] + COC(=O)c1ccccc1O           71
2        O [water] + CC/C=C\CCO         71.5
3  O [water] + CC/C=C\CCOC(C)=O         70.2
4       O [water] + C=CC(C)(C)O         70.8
